# Test system: CAMK2A
# Test Context: concentration: 1 μM, replicates: in singlicate; n = 1;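 further: KINOMEscan kinase panel screen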
Endpoint Label: %Inh (%)
Answers are plain numbers, in %.

# input Would you kindly share the measured %Inh for Cc1ccc(O)cc1Nc1ccnc2cc(-c3ccc(CN4CCCCC4)o3)ccc12 [GW557777] ?
# output 0

Please report %Inh for every entry that follows.
1. Cl.Cl.NCC(NC(=O)c1cc(-c2cccnc2)c(-c2ccnc3[nH]ccc23)s1)c1ccccc1 (stereo not drawn) [GSK1323434]
2. O=C(Nc1n[nH]c2nc(-c3cccc(O)c3)ccc12)C1CC1 [SB-711805]
3. Cc1ccc(Nc2ccnc(Nc3ccc(C)c(F)c3)n2)cc1O.Cl [GW582868]
4. O=C(Nc1c(F)cccc1F)c1cc(C(=O)c2ccccc2F)c[nH]1 [GSK1326180]
5. Cc1nn2c(=O)cc(N3CCO[C@H](C)C3)nc2n1Cc1cccc(Cl)c1Cl [GSK2373693]

# output
[0, 0, 96.6, 2, 0]

Please report %Inh for every entry that follows.
1. CSc1ccc(NC2=C(c3ccc(Cl)cc3)C(=O)NC2=O)cc1 [SB-317658]
2. Cc1ccc(NC(=O)c2cccc(N3CCCCC3)c2)cc1-c1ccc(C(=O)NCC2CC2)cc1 [GSK1917008]
3. COc1cccc2c(-c3ccncc3)c(-c3ccc(F)cc3)nn12 [GW468513]

# output
1: 4; 2: 0; 3: 0

###

# Test system: RSK3(Kin.Dom.2-C-terminal)
# Construct: gene RPS6KA2
# Test Context: concentration: 1 μM, replicates: in singlicate; n = 1
Endpoint Label: %Inh (%)
One number for each entry, in %.

Use the examples below as a reference point.
# input Would you kindly share the measured %Inh for c1ccc(Oc2ccc(Nc3ccnc4cc(-c5ccc(CN6CCCCC6)o5)ccc34)cc2)nc1 [GW567143] ?
# output 0

# input What would you report for CC(=O)Nc1cn2nc(Oc3cccc(NC(=O)c4cccc(C(F)(F)F)c4)c3)ccc2n1 ?
# output 5

# input What would you report for Cc1cc(-c2c(-c3ccc(F)cc3)ncn2CCCN2CCOCC2)nc(N)n1 [SB-222517] ?
# output 21

# input What would you report for Cn1cc(-c2ccc3c(c2)CCN3C(=O)Cc2cc(F)cc(C(F)(F)F)c2)c2c(N)ncnc21 [GSK2635225] ?
# output 0

# input What would you report for COc1cccc(C2=C(Nc3cccc(O)c3)C(=O)NC2=O)c1 [SB-390771] ?
# output 7

# input What would you report for Cc1cc(-c2ccnc(Nc3cccc(C#N)c3)n2)cc(C)c1O [GSK1440913] ?
# output 21

# input What would you report for COc1cc(Nc2nccc(N3CCC(NS(=O)(=O)c4ccc(NC(C)=O)cc4)CC3)n2)cc(OC)c1OC [GSK1379825] ?
# output 2

# input What would you report for CCNc1nccc(-c2c(-c3ccc(F)cc3)ncn2C2CCN(C)CC2)n1 ?
# output 10

Please report %Inh for every entry that follows.
1. COC(=O)Nc1nc2cc(Oc3ccc(NC(=O)Nc4cccc(SC)c4)cc3)ccc2[nH]1.Cl [GW697999]
2. Cc1ccc(-c2ccc3occ(-c4ccc(S(C)=O)cc4)c3c2)nn1 (centres unmarked)
3. CN(C)CCNS(=O)(=O)c1ccc(-c2ccnc3[nH]ccc23)cc1 [GSK977620]
4. O=C(Nc1n[nH]c2nc(-c3cccc(O)c3)ccc12)C1CC1 [SB-711805]
5. Cc1cccc(Nc2nc(N[C@H]3CCCC[C@H]3N)ncc2C(N)=O)c1.Cl [GSK986310]
6. Cc1cccc(Nc2nc(NCCN)ncc2C(N)=O)c1 [GSK1292139]
7. Cc1ccc(NC(=O)c2cccc(N3CCCCC3)c2)cc1-c1ccc(C(=O)NCC2CC2)cc1 [GSK1917008]
8. COc1cc(Nc2ccnc3cc(-c4ccncc4)ccc23)cc(OC)c1OC.Cl [GW494610]

# output
0
0
21
0
12
1
5
0
